target: PAK2 (Homo sapiens)
Sequence (Q13177 whole entry): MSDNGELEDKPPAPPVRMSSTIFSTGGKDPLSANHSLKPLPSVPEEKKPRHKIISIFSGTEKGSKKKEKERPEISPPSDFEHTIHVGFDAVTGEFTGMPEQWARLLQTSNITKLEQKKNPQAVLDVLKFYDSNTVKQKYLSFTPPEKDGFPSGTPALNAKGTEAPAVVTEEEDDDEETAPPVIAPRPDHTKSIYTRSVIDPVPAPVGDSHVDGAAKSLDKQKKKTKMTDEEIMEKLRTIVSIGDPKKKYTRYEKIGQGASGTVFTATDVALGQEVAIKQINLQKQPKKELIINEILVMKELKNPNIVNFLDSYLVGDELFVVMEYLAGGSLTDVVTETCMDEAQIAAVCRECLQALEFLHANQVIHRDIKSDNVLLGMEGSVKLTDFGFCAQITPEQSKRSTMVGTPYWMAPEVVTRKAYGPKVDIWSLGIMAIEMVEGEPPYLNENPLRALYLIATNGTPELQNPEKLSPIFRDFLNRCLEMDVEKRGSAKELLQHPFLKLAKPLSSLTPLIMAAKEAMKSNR
experimentSummary: Z'Lyte fluorescence-based (FRET) PAK kinase assay, PAK2
Format: biochemical
experimentalConditions: Table 1 of Example 100; 75 μM ATP
pIC50: −log10 of the molar value.
The following compounds are shown together with reported pIC50 values.

Observe how each entry below is paired with its result.
INSERT INTO results (compound, observationtype, result) VALUES
  ('CN1CCN(c2ccc(Nc3ncc4ccc(=O)n(CCc5ccccc5)c4n3)cc2)CC1 [Compound 49]', 'pIC50', '> 6.00'),
  ('CN1CCN(c2ccc(Nc3ncc4ccc(=O)n(Cc5ccccc5C(F)(F)F)c4n3)cc2)CC1 [Compound 42]', 'pIC50', '> 6.00'),
  ('CN1CCN(c2ccc(Nc3ncc4ccc(=O)n(CC(=O)c5ccccc5)c4n3)cc2)CC1 [Compound 50]', 'pIC50', '5.00 to 6.00');

Note pIC50 for the compound shown: CN1CCN(c2ccc(Nc3ncc4ccc(=O)n(Cc5ccc(F)cc5)c4n3)cc2)CC1 [Compound 28]
< 5.00

Note pIC50 for the compound shown: CN1CCN(c2ccc(Nc3ncc4ccc(=O)n(Cc5ccccc5F)c4n3)cc2)CC1 [Compound 35]
5.00 to 6.00

Note pIC50 for the compound shown: O=c1ccc2cnc(Nc3ccc(OC4CCCNC4)cc3)nc2n1Cc1ccccc1C(F)(F)F (centres unmarked) [Compound 14]
> 6.00

Note pIC50 for the compound shown: CN1CCN(c2ccc(Nc3ncc4ccc(=O)n(Cc5ccc(Cl)cc5)c4n3)cc2)CC1 [Compound 30]
< 5.00

Note pIC50 for the compound shown: COc1ccccc1Cn1c(=O)ccc2cnc(Nc3ccc(N4CCN(C)CC4)cc3)nc21 [Compound 34]
5.00 to 6.00

Note pIC50 for the compound shown: O=c1ccc2cnc(Nc3ccc(NC4CCNCC4)cc3)nc2n1Cc1ccccc1C(F)(F)F [Compound 8]
> 6.00

Note pIC50 for the compound shown: COc1cccc(Cn2c(=O)ccc3cnc(Nc4ccc(N5CCN(C)CC5)cc4)nc32)c1 [Compound 33]
< 5.00
